Data provenance is patent US20080318943A1.

# system name: GABAA receptor α2β3γ2 (Homo sapiens, UniProt P18507+P47869)
# Construct: expressed in transfected cells; host or cells: Xenopus laevis oocytes injected with cRNA
# Sequence (P47869 29-451): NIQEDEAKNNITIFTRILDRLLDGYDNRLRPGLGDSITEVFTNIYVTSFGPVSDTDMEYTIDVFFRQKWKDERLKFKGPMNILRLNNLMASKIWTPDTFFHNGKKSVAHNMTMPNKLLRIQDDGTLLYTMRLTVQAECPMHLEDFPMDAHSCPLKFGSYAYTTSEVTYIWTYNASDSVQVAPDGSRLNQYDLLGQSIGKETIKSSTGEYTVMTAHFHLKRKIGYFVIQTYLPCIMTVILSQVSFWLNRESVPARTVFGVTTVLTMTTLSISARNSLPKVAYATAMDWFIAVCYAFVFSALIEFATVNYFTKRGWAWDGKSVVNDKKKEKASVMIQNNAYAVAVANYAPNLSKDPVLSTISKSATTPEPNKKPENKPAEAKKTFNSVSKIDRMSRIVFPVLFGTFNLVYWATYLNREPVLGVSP
# Sequence (P28472 26-473 partner): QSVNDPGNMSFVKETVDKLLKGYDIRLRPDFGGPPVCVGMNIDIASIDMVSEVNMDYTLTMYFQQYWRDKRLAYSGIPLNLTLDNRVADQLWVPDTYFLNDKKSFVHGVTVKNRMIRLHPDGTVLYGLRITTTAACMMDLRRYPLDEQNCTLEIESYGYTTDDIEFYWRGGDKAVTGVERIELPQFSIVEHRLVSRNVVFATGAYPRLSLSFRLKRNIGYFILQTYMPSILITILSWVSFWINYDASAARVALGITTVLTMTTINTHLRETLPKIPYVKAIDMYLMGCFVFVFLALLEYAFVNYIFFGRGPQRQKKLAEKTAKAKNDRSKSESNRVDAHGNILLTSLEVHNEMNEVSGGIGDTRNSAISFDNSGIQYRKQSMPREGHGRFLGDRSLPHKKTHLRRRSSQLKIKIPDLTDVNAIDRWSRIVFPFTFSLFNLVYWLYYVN
# Sequence (P18507 40-475): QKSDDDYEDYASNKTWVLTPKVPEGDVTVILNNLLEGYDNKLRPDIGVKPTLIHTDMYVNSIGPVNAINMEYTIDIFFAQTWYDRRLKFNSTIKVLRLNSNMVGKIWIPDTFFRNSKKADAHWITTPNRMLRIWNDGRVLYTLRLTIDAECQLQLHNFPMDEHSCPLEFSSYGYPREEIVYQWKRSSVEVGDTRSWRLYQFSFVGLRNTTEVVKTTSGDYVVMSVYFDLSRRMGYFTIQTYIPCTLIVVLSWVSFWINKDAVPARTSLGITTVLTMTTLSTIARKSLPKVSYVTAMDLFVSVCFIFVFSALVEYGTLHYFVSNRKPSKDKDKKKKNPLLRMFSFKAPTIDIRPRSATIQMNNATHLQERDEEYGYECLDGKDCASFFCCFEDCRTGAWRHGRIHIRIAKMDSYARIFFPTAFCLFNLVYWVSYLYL
# assay overview: Two-electrode voltage-clamp potentiation of GABA EC10 current in Xenopus oocytes, GABAA2
# Assay type: cell-based
# particulars: percentage potentiation of GABA EC10 current divided by that of diazepam
Relative Potentiation for GABAA2 class ranges: low group: < 0.2; middle group: ≥ 0.2 and < 0.3; high group: ≥ 0.3

Nc1c2c(nc3c(-c4cccc(F)c4F)cccc13)CN(C1CC1)C2=O ... low group
COc1cccc(-c2c(F)ccc3c(N)c4c(nc23)CN(C2CCC2)C4=O)c1F ... low group
COc1ccc(-c2cccc3c(N)c4c(nc23)CN(C)C4=O)c(OC)n1 ... low group
COc1ccc(-c2c(F)ccc3c(N)c4c(nc23)CN(C2CC2)C4=O)c(F)c1 ... low group
CCCN1Cc2nc3c(-c4cccc(C)c4)cccc3c(N)c2C1=O ... middle group

In plain terms, what class is Cc1cccc(-c2cccc3c(N)c4c(nc23)C(O)N(C2CCC2)C4=O)n1 (centres unmarked) ?
low group

In plain terms, what class is CCCN1Cc2nc3c(-c4cccc(C)c4C)cccc3c(N)c2C1=O ?
middle group

In plain terms, what class is CCCN1Cc2nc3c(-c4ccc(F)nc4C)cccc3c(N)c2C1=O ?
high group

* * *

# system name: GABAA2 receptors (α2, β3, γ2 receptor subunits transfected into Sf9 cells) (Homo sapiens, UniProt P18507+P47869)
# Sequence (P47869 29-451): as the sequence (P47869 29-451) above
# Sequence (P28472 26-473 partner): as the sequence (P28472 26-473 partner) above
# Sequence (P18507 40-475): as the sequence (P18507 40-475) above
# assay overview: GABAA2 Binding Method ([3H]-Flunitrazepam displacement)
# particulars: [3H]-Flunitrazepam ~2 nM, α2β3γ2 Sf9 membranes, 1 hr at 4° C.
Ki class ranges: bin 0 = under 3 nM, bin 1 = from 3 nM up to 20 nM, bin 2 = 20 nM and over

Example cases with answers are listed next.
COc1cc(F)c(-c2cccc3c(N)c4c(nc23)CN(C2CC2)C4=O)cc1F ... bin 2
COc1cc(-c2cccc3c(N)c4c(nc23)CN(C2CCC2)C4=O)c(F)cn1 ... bin 1
CCN1Cc2nc3c(-c4ccc(OC)cc4F)c(F)ccc3c(N)c2C1=O ... bin 0
CCCN1Cc2nc3c(-c4cnc(F)c(C)c4)cccc3c(N)c2C1=O ... bin 2
CCCN1Cc2nc3c(-c4ccc(OC)cc4C(F)(F)F)cccc3c(N)c2C1=O ... bin 1
COc1ccc(CN2Cc3nc4c(-c5cnccc5OC)cccc4c(N)c3C2=O)cc1OC ... bin 0
CCN1Cc2nc3c(-c4ccc(F)cc4OC)cccc3c(N)c2C1=O ... bin 2
CCN1Cc2nc3c(-c4ccc(OC)cc4F)cccc3c(N)c2C1=O ... bin 1

In plain terms, what class is COc1ccc(F)cc1-c1c(F)ccc2c(N)c3c(nc12)CN(C1CCC1)C3=O ?
bin 0

In plain terms, what class is COc1ccc(-c2c(F)ccc3c(N)c4c(nc23)CN(C2CCC2)C4=O)cc1OC ?
bin 0

In plain terms, what class is CCCN1Cc2nc3c(-c4cnc(OC)c(C)c4)cccc3c(N)c2C1=O ?
bin 2

In plain terms, what class is CCCN1Cc2nc3c(-c4c(F)cc(OC)cc4F)cccc3c(N)c2C1=O ?
bin 1

In plain terms, what class is CCCN1Cc2nc3c(-c4cnc(Cl)c(C)c4)cccc3c(N)c2C1=O ?
bin 2

In plain terms, what class is COc1ncccc1-c1c(F)ccc2c(N)c3c(nc12)CN(C1CCC1)C3=O ?
bin 0

In plain terms, what class is COc1cccc(CN2Cc3nc4c(-c5cc(OC)ccc5OC)cccc4c(N)c3C2=O)c1 ?
bin 2

In plain terms, what class is Nc1c2c(nc3c(-c4cc(Cl)ccc4Cl)cccc13)CN(C1CCC1)C2=O ?
bin 1

In plain terms, what class is CCCN1Cc2nc3c(-c4c(F)cccc4OC)c(F)ccc3c(N)c2C1=O ?
bin 1

* * *

# system name: GABAA receptor α2β3γ2 (Homo sapiens, UniProt P18507+P47869)
# Construct: expressed in transfected cells; host or cells: Xenopus laevis oocytes injected with cRNA
# assay overview: Two-electrode voltage-clamp potentiation of GABA EC10 current in Xenopus oocytes, GABAA2
# Type: cell-based
# particulars: percentage potentiation of GABA EC10 current divided by that of diazepam
So basically: Relative Potentiation for GABAA2 at 0.4 or higher? That is 1. Lower than 0.4? That is -1.

CCCN1Cc2nc3c(-c4ccc(F)cc4OC)cccc3c(N)c2C1=O ... -1

Does Relative Potentiation for GABAA2 meet or surpass 0.4 for COc1ccc(CN2Cc3nc4c(-c5cccnc5OC)cccc4c(N)c3C2=O)cc1 ?
1

Does Relative Potentiation for GABAA2 meet or surpass 0.4 for Nc1c2c(nc3c(-c4ccc(N5CCOCC5)nc4)cccc13)CN(C1CCC1)C2=O ?
-1

Does Relative Potentiation for GABAA2 meet or surpass 0.4 for CCN1Cc2nc3c(-c4cnccc4OC)cccc3c(N)c2C1=O ?
-1

Does Relative Potentiation for GABAA2 meet or surpass 0.4 for COc1ccc(CN2Cc3nc4c(-c5cnccc5OC)cccc4c(N)c3C2=O)cc1OC ?
-1

* * *

# system name: GABAA receptor α1β2γ2 (Homo sapiens, UniProt P14867+P18507)
# Construct: expressed in transfected cells; host or cells: Xenopus laevis oocytes injected with cRNA
# Sequence (P14867 28-456): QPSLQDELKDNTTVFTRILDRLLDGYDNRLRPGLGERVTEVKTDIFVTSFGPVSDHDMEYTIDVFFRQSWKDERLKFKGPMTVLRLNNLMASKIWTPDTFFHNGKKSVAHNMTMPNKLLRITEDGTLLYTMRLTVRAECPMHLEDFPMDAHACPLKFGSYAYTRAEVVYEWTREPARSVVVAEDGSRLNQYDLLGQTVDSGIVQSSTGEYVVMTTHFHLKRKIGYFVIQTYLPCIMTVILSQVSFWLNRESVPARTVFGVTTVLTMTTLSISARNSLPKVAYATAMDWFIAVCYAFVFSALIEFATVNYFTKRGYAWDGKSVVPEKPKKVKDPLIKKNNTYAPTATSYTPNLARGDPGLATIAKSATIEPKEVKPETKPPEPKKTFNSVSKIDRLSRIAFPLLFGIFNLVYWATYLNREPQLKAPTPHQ
# Sequence (P47870 25-512 partner limits assumed): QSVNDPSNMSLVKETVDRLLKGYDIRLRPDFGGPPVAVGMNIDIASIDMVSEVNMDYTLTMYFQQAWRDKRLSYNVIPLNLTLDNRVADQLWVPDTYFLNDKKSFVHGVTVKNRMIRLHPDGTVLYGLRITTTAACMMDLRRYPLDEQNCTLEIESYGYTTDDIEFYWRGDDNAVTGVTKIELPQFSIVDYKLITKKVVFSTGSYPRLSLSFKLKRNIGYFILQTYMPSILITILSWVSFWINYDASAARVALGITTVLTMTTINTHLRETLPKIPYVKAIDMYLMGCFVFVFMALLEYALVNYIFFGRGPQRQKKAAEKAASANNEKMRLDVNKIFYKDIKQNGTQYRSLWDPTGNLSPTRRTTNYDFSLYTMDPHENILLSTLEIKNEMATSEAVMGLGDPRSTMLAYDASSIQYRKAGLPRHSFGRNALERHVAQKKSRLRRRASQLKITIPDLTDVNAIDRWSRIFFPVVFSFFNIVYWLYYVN
# Sequence (P18507 40-475): as the sequence (P18507 40-475) above
# assay overview: Two-electrode voltage-clamp potentiation of GABA EC10 current in Xenopus oocytes, GABAA1
# Assay type: cell-based
# particulars: percentage potentiation of GABA EC10 current divided by that of diazepam
property measured: Relative Potentiation for GABAA1

Check out these entries, answers already filled in.
COc1ccc(F)c(-c2c(F)ccc3c(N)c4c(nc23)CN(C2CCC2)C4=O)c1 ... 0.025
CCN1Cc2nc3c(-c4cccnc4OC)c(F)ccc3c(N)c2C1=O [Example 58] ... −0.055
COc1cccc(-c2c(F)ccc3c(N)c4c(nc23)CN(C2CCC2)C4=O)c1F ... 0.028
COc1ccncc1-c1cccc2c(N)c3c(nc12)CN(C1CC1)C3=O ... 0.21
COc1ccc(CN2Cc3nc4c(-c5cc(F)c(OC)cc5F)cccc4c(N)c3C2=O)cc1 ... 0.29

Checklist item: Relative Potentiation for GABAA1 tested on GABAA receptor α1β2γ2 (Homo sapiens, UniProt P14867+P18507), entry COc1cccc(Cl)c1-c1cccc2c(N)c3c(nc12)CN(C1CC1)C3=O , value?
−0.1

Checklist item: Relative Potentiation for GABAA1 tested on GABAA receptor α1β2γ2 (Homo sapiens, UniProt P14867+P18507), entry COc1ccc(OC)c(CN2Cc3nc4c(-c5cnccc5OC)cccc4c(N)c3C2=O)c1 [Example 39] , value?
0.18

Checklist item: Relative Potentiation for GABAA1 tested on GABAA receptor α1β2γ2 (Homo sapiens, UniProt P14867+P18507), entry COc1ccc(CN2Cc3nc4c(-c5ccc(OC)cc5OC)cccc4c(N)c3C2=O)cc1 , value?
0.25

Checklist item: Relative Potentiation for GABAA1 tested on GABAA receptor α1β2γ2 (Homo sapiens, UniProt P14867+P18507), entry Cc1ccc(-c2cccc3c(N)c4c(nc23)CN(C2CCC2)C4=O)c(F)n1 , value?
−0.017

* * *

# system name: GABAA receptor α2β3γ2 (Homo sapiens, UniProt P18507+P47869)
# Construct: expressed in transfected cells; host or cells: Xenopus laevis oocytes injected with cRNA
# assay overview: Two-electrode voltage-clamp potentiation of GABA EC10 current in Xenopus oocytes, GABAA2
# Type: cell-based
# particulars: percentage potentiation of GABA EC10 current divided by that of diazepam
Relative Potentiation for GABAA2 class ranges: lower level: < 0.1; middle level: ≥ 0.1 and < 0.3; upper level: ≥ 0.3

Example cases with answers are listed next.
Cc1nn(C)cc1-c1c(F)ccc2c(N)c3c(nc12)CN([C@@H]1CCOC1)C3=O ... upper level
COc1cccc(F)c1-c1c(F)ccc2c(N)c3c(nc12)CN(C)C3=O ... lower level

API: the following record is the query input.
In plain terms, what class is COc1ccc(-c2c(F)ccc3c(N)c4c(nc23)CN(C2CCC2)C4=O)c(C)n1 ?
middle level

* * *

# system name: GABAA2 receptors (α2, β3, γ2 receptor subunits transfected into Sf9 cells) (Homo sapiens, UniProt P18507+P47869)
# assay overview: GABAA2 Binding Method ([3H]-Flunitrazepam displacement)
# particulars: [3H]-Flunitrazepam ~2 nM, α2β3γ2 Sf9 membranes, 1 hr at 4° C.
property measured: Ki (nM)
Give just the numeric value; nM need not be written.

COc1ccc(CN2Cc3nc4c(-c5cc(F)ccc5C)cccc4c(N)c3C2=O)cc1 ... 25.8

Ki lookup needed for Cc1ccc(-c2cccc3c(N)c4c(nc23)CN(C2CC2)C4=O)c(Cl)n1 , thanks.
7.87

Ki lookup needed for COc1ccc(F)c(-c2c(F)ccc3c(N)c4c(nc23)CN(C2CC2)C4=O)c1F , thanks.
4.12
